Target: Enoyl-[acyl-carrier-protein] reductase [NADH] FabI (Escherichia coli K-12)
Sequence (P0AEK4 whole entry): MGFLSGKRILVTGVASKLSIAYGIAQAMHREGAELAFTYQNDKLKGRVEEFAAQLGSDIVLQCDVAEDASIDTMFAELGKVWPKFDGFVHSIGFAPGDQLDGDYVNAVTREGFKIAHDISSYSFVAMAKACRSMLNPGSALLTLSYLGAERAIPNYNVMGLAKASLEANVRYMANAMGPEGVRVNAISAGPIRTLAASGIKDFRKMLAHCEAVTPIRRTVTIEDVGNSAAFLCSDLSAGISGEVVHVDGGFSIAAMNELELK
Assay: Evaluated for inhibition of enoyl acyl carrier protein reductase (FabI) in Escherichia coli.
measure: pIC50
Just so you know, pIC50 here is -log10 of the concentration in molar units; reply with that number alone.

| entry.smiles | tested.system | pIC50 |
| --- | --- | --- |
| Cc1cccc(Cn2cnc(-c3ccsc3)c2)c1 | Enoyl-[acyl-carrier-protein] reductase [NADH] FabI (Escherichia coli K-12) | 4.91 |
| COc1ccc(Cn2cnc(-c3ccsc3)c2)cc1 | Enoyl-[acyl-carrier-protein] reductase [NADH] FabI (Escherichia coli K-12) | 5.03 |
| COc1ccc(-c2cn(Cc3ccccc3)cn2)cc1 | Enoyl-[acyl-carrier-protein] reductase [NADH] FabI (Escherichia coli K-12) | 5.28 |
| O=[N+]([O-])c1cccc(Cn2cnc(-c3ccsc3)c2)c1 | Enoyl-[acyl-carrier-protein] reductase [NADH] FabI (Escherichia coli K-12) | 4.57 |
| COc1ccc(-c2cn(Cc3ccc(C)cc3)cn2)cc1 | Enoyl-[acyl-carrier-protein] reductase [NADH] FabI (Escherichia coli K-12) | 5.41 |
| COc1ccc(-c2cn(Cc3ccc(C(F)(F)F)cc3)cn2)cc1 | Enoyl-[acyl-carrier-protein] reductase [NADH] FabI (Escherichia coli K-12) | 4.55 |
| c1ccc(-c2ccc(Cn3cnc(-c4ccsc4)c3)cc2)cc1 | Enoyl-[acyl-carrier-protein] reductase [NADH] FabI (Escherichia coli K-12) | 5.93 |

Next compound, please.
Lab note: need pIC50 with Enoyl-[acyl-carrier-protein] reductase [NADH] FabI (Escherichia coli K-12) for entry `Nc1ccc(Cn2cnc(-c3ccsc3)c2)cc1` , please look it up.
5.29

====

Biological target: UniProtKB P0AEK4
Sequence (P0AEK4 whole entry): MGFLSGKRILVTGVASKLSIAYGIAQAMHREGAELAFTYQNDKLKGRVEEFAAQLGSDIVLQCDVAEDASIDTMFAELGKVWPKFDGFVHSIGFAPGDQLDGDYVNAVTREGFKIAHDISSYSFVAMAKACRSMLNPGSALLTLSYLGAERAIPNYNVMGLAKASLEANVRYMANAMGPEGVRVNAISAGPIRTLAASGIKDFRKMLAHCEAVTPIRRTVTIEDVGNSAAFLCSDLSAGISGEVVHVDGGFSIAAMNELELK
Assay: Evaluated for inhibition of enoyl acyl carrier protein reductase (FabI) of Escherichia coli in the presence of NADH using crotonoyl CoA as substrate
measure: IC50 (µM)
Response body: numeric value in µM, unit text excluded.

Need IC50 of `Cc1ccc(Cn2cnc(-c3cccs3)c2)cc1` , thanks.
13.7

====

IC50 listing for selected molecules.
biological target: Enoyl-[acyl-carrier-protein] reductase [NADH] FabI (Escherichia coli K-12, UniProt P0AEK4); experiment: Evaluated for inhibition of enoyl acyl carrier protein reductase (FabI) in Escherichia coli.

Examples with answers:
| entry.smiles | IC50 |
| --- | --- |
| Cc1ccc(Cn2cnc(-c3ccsc3)c2)cc1 | 6.44 µM |
| c1ccc(C[C@H]2COC(c3ccsc3)=N2)cc1 | > 100 µM |
| Cc1ccc(Cc2nc(-c3ccsc3)no2)cc1 | > 100 µM |
| O=C(O)c1cccc(Cn2cnc(-c3ccsc3)c2)c1 | > 100 µM |
| Cc1ccc(Cc2coc(-c3ccsc3)n2)cc1 | > 100 µM |
| Cc1ccccc1Cn1cnc(-c2ccsc2)c1 | 65.4 µM |

We next turn to a different molecule, shown below.
Please look up its IC50: `COc1ccc(-c2c[nH]c(Cc3ccc(C)cc3)n2)cc1`
> 100 µM
